- method-description: […] in rat liver at 0.5 mg/kg,iv
- Assay type: ADME, organism-based
property-label: Kp
Kindly provide the number alone.

Would you kindly share the measured Kp for "COCCOc1cc(F)c2c(c1)CC[C@@H]2Nc1nc2nc(O[C@@H]3CO[C@H]4[C@@H]3OC[C@H]4O)[nH]c2cc1Cl" ?
5.64

----------
- method-description: AUC in rat at 1 mg/kg,po
- Format: ADME, organism-based
- Set-up: dose 1 mg/kg, route po
- assay-setup: in vivo
property-label: AUC (ng·h/mL)
State the answer as a number, implicitly in ng·h/mL.

Would you kindly share the measured AUC for "COCCOc1cc(F)c2c(c1)CC[C@@H]2Nc1nc2nc(O[C@@H]3CO[C@H]4[C@@H]3OC[C@H]4O)[nH]c2cc1Cl" ?
347
